System: A498 renal
Test: NCI tumour cell line growth inhibition, 48 h

molecule: O=c1c2cc(F)ccc2sc2c(Nc3ccncc3)nc3ccccc3c12
bound.sign: =
TGI / µM: 2.64
//
molecule: CS(=O)(=O)O[C@H]1C(=O)N(c2cc3c4ccccc4ccc3c3ccccc23)[C@@H]1c1ccccc1
bound.sign: >
TGI / µM: 100
//
molecule: CN(C)CCCNC(=O)c1cc2/c(=C\c3ccc(N(C)C)cc3)c3ccccc3n2[n+]1C
bound.sign: >
TGI / µM: 100
//
molecule: CC(C)=[CH][Sb]([Br])([CH]=C(C)C)([CH]=C(C)C)[c]1ccccc1
bound.sign: >
TGI / µM: 100
//
molecule: Cc1cc2nc(C#N)c(N3CCN(c4ccc([N+](=O)[O-])cc4)CC3)nc2cc1C
bound.sign: >
TGI / µM: 100
//
molecule: CC(C)=CCC/C(C)=C/CC/C(C)=C/CC/C(C)=C/CSC[C@H](NC(=O)CCCCCN1CCN(C)CC1)C(=O)NC1CCCCC1
bound.sign: =
TGI / µM: 34.2
//
molecule: O=C(CCc1n[nH]c(=S)o1)Nc1ccc(Cl)cc1Cl
bound.sign: >
TGI / µM: 100
//
molecule: O=C(c1ccc(Cl)cc1)c1no[n+]([O-])c1C(=O)c1ccc(Cl)cc1
bound.sign: =
TGI / µM: 36.4
//
molecule: O=[N+]([O-])c1ccc(C2=Nn3c(nnc3-c3ccccc3)SC2)o1
bound.sign: >
TGI / µM: 100
//
molecule: COc1cc([C@@H]2c3cc4c(cc3[C@@H](Nc3ccc(N=Cc5ccc(C(=O)O[C@@H](C(=O)O[C@H]6C[C@@]7(O)[C@@H](OC(=O)c8ccccc8)[C@@H]8[C@]9(OC(C)=O)CO[C@@H]9C[C@H](O)[C@@]8(C)C(=O)[C@H](OC(C)=O)C(=C6C)C7(C)C)[C@@H](NC(=O)c6ccccc6)c6ccccc6)cc5)cc3)[C@H]3COC(=O)[C@H]23)OCO4)cc(OC)c1O
bound.sign: =
TGI / µM: 4.48
//
molecule: C=C(CNCCc1ccc(O)cc1)[C@@H]1CC[C@]2(CO)CC[C@]3(C)[C@H](CC[C@@H]4[C@@]5(C)CCC(NCCc6ccc(O)cc6)C(C)(C)[C@@H]5CC[C@]43C)[C@@H]12 (stereo partly specified)
bound.sign: =
TGI / µM: 2.86
//
molecule: CCC[CH2][Sn]1([CH2]CCC)[O]C(=O)c2cccc(C)c2[O]1
bound.sign: =
TGI / µM: 0.867
//
molecule: COc1cc(/C=C/c2cc(/C=C/c3ccc(O)c(OC)c3)n(-c3c(Cl)cccc3Cl)c(=O)n2)ccc1O
bound.sign: =
TGI / µM: 13.2
//
molecule: O=C(Nc1nc(-c2ccc(Cl)cc2)cs1)c1cc(-c2ccc(Br)cc2)nc2ccc(Cl)cc12
bound.sign: >
TGI / µM: 100
//
molecule: CCOC(=O)C1=C(Cl)c2cccnc2C1=O
bound.sign: >
TGI / µM: 100
//
molecule: Cn1c(-c2ccccc2)cc(-c2ccsc2)c1-c1ccsc1
bound.sign: >
TGI / µM: 100

----------
Test system: SK-MEL-2 melanoma
Assay: NCI tumour cell line growth inhibition, 48 h

compound: CCOC(=O)C1CCCCN1C(=O)OCc1ccccc1 (stereo not given)
target.entity: SK-MEL-2 melanoma
bound.sign: >
TGI [µM]: 100
//
compound: CCCN=Cc1c(O)c(O)c(C(C)C)c2cc(C)c(-c3c(C)cc4c(C(C)C)c(O)c(O)c(C=NCCC)c4c3O)c(O)c12
target.entity: SK-MEL-2 melanoma
bound.sign: =
TGI [µM]: 7.44
//
compound: c1cc2c(s1)SSSSS2
target.entity: SK-MEL-2 melanoma
bound.sign: >
TGI [µM]: 100
//
compound: COc1cccc2c1N[S@](=O)S2
target.entity: SK-MEL-2 melanoma
bound.sign: >
TGI [µM]: 100
//
compound: CC/C=C/C[C@H](O[Si](C)(C)C(C)(C)C)[C@H]1C[C@H]2O[C@H]([C@@H](O)C#C[Si](C)(C)C)C[C@H]2O1
target.entity: SK-MEL-2 melanoma
bound.sign: =
TGI [µM]: 31.3

----------
Measured GI50, listed per entry for reference.
Test system: KM12 colon
Test: NCI tumour cell line growth inhibition, 48 h

molecule: COc1cc2c3c(n(CCCNCCNCCN)c(=O)c2cc1OC)-c1cc2c(cc1C3=O)OCO2
GI50: 3410 nM

molecule: Clc1ccc2c(c1)C(Br)c1cc(Cl)cc(Cl)c1-2 (stereo not drawn)
GI50: > 100000 nM

molecule: COc1ccc(-c2cc(-c3ccccc3)nc(SCCCC(=O)NO)n2)cc1OC
GI50: 2830 nM

molecule: O=C1Nc2ccccc2/C1=C\c1c(Cl)nc2sccn12
GI50: 670 nM

molecule: COc1cc(-c2ccc(-c3ccc(C(=N)N)cc3)s2)cc(OC)c1OC
GI50: 1670 nM

molecule: O=C([O-])c1cc(I)cc(I)c1[OH2+].O=C([O-])c1cc(I)cc(I)c1[OH2+].[Mn+2]
GI50: 67300 nM

molecule: C=C1C(=O)O[C@H]2[C@H]1CC/C(COC(=O)/C=C/C(=O)NCc1ccc(Cn3c(=O)sn(-c4ccccc4)c3=O)cc1)=C\CC[C@@]1(C)O[C@@H]21
GI50: 2960 nM

molecule: CC1(C)CN(c2cc(C(F)(F)F)cc3cncn23)CCC12NC(=O)NC2=O (stereo not drawn)
GI50: 45100 nM

molecule: COc1ccc(/C=C/C(=O)c2cc3c(N)c(C(=O)Nc4cccc(Cl)c4C)sc3nc2C)cc1
GI50: 214 nM

molecule: CS(=O)(=O)O[C@H]1C(=O)N(c2cc3c4ccccc4ccc3c3ccccc23)[C@@H]1c1ccccc1
GI50: 216 nM

molecule: Cn1ccc(=O)c2c(O)c3ccccc3c(O)c21
GI50: > 70100 nM

molecule: COc1cc(/C=C/c2cc(/C=C/c3ccc(O)c(OC)c3)n(-c3c(Cl)cccc3Cl)c(=O)n2)ccc1O
GI50: 2020 nM

molecule: CN(C)c1cc[n+](/C(NS(=O)(=O)c2cc(C(=O)Nc3ccc(Cl)cc3)c(Cl)cc2[S-])=C(\C#N)C(=O)c2ccccc2)cc1
GI50: 40600 nM

molecule: CC1=C2O[C@]3(O)C=C2C(=C(O)C1=O)[C@@H]1O[C@H](CC[C@H](C)/C=C(\C)C[C@@H](C)C[C@@H]3C)[C@H](C)[C@H](O)[C@H]1C
GI50: 376 nM

molecule: CC(C)=[CH][Sb]([Br])([CH]=C(C)C)([CH]=C(C)C)[c]1ccccc1
GI50: 6740 nM

molecule: O=C(COc1nc2ccccc2nc1-c1ccccc1)Nc1ccc(Cl)cc1
GI50: 8380 nM

molecule: COc1cc2c(cc1OCCCCCn1c(-c3ccc(OCc4ccccc4)cc3)nc3cc(N4CCOCC4)ccc31)N=C[C@@H]1CCCN1C2=O
GI50: 1930 nM

molecule: CCN(CC)Cc1cc(Nc2c3ccc(Cl)cc3nc3ccc(OC)cc23)ccc1O
GI50: 3170 nM

----------
Tested on: IGROV1 ovarian
Test: NCI tumour cell line growth inhibition, 48 h
Listed below: TGI values for each entry.

compound: c1ccc2c(c1)SC1=C(SC(=C3SC4=C(S3)Sc3ccccc3S4)S1)S2
TGI: > 100 µM

compound: O=C1C(Cl)=C(N2C(=O)CCC2=O)C(=O)c2ccccc21
TGI: > 100 µM

compound: Nc1nonc1C(=Nc1ccc(F)c(Cl)c1)NO
TGI: > 100 µM

compound: COC(=O)/C=C/C1C2C3(CCC(C)C12C)OCCS3 (configuration not stated)
TGI: > 100 µM

compound: C=Cc1nc2nnc(CCCCCCCCc3nnc4nc(C=C)[nH]n34)n2[nH]1
TGI: > 100 µM

compound: OC(c1ccoc1)c1cc2ccccc2s1 (configuration not stated)
TGI: > 10 µM

compound: c1cc2c(s1)SSSSS2
TGI: 43.1 µM

----------
As shown below, each of these molecules has a reported TGI value.
Tested on: SR leukemia
Assay: NCI tumour cell line growth inhibition, 48 h
measured.metric: TGI

molecule: NC(=S)N/N=C1\CCCCc2ccccc21
target.entity: SR leukemia
measured.metric: TGI
result: > 10 µM

molecule: c1ccc(C2(c3ccccc3)SSC3(S2)C2CC4CC(C2)CC3C4)cc1 (centres undefined)
target.entity: SR leukemia
measured.metric: TGI
result: > 100 µM

molecule: CNC(=O)NCC1OC(n2cnc3c(NC(=O)Nc4ccccc4)ncnc32)C(O[Si](C)(C)C(C)(C)C)C1CC(=O)N(C)OC (centres undefined)
target.entity: SR leukemia
measured.metric: TGI
result: 4.06 µM

molecule: COC(=O)CN(CC1O[C@@H]2OC(C)(C)O[C@@H]2C1N=[N+]=[N-])C(=O)OCc1ccccc1 (some centres undefined)
target.entity: SR leukemia
measured.metric: TGI
result: > 100 µM

molecule: C/C(=C\COc1cc(O)c2c(c1)C(=O)c1cc(C)cc(O)c1C2=O)CCC1OC1(C)C (centres undefined)
target.entity: SR leukemia
measured.metric: TGI
result: > 100 µM

molecule: Oc1ccc(O)c(Cc2ccccc2)c1
target.entity: SR leukemia
measured.metric: TGI
result: 14.5 µM

molecule: COc1cc2c(cc1I)-c1c(cc(OC)c(OC)c1OC)CC[C@@H]2NC(C)=O
target.entity: SR leukemia
measured.metric: TGI
result: 34.6 µM

molecule: CN(C)C1C(=O)C(C(=O)NCN2CCCC2)=C(O)C2(O)C(=O)C3=C(O)c4c(O)cccc4C(C)(O)C3CC12 (centres undefined)
target.entity: SR leukemia
measured.metric: TGI
result: > 100 µM

molecule: Cc1ccc(O)c(C(c2ccc(C(c3cc(C)ccc3O)c3cc(C)ccc3O)cc2)c2cc(C)ccc2O)c1
target.entity: SR leukemia
measured.metric: TGI
result: 6.33 µM

molecule: Nc1nc(-c2ccco2)cc(-c2ccco2)n1
target.entity: SR leukemia
measured.metric: TGI
result: > 100 µM

molecule: C=CCOC(C)n1c(C)cc(=O)n(C(C)OCC=C)c1=O (centres undefined)
target.entity: SR leukemia
measured.metric: TGI
result: > 100 µM

molecule: Nc1nonc1C(=Nc1ccc(F)c(Cl)c1)NO
target.entity: SR leukemia
measured.metric: TGI
result: > 100 µM

molecule: OC(c1ccoc1)c1cc2ccccc2s1 (centres undefined)
target.entity: SR leukemia
measured.metric: TGI
result: > 10 µM

molecule: CC1(C)C(N(O)C(=O)Nc2ccc(Cl)cc2)N(c2ccc(Cl)cc2)C(=O)N1CC(=O)N/N=C/C=C/c1ccc([N+](=O)[O-])o1 (centres undefined)
target.entity: SR leukemia
measured.metric: TGI
result: 1.95 µM
